- SUBJECT_OF_TEST: T1, human IL-22 receptor (human IL-22Ra and human IL-10Rb) on cells (human, UniProt Q8N6P7 16-574; Q08334 20-325)
- T1 sequence (looked up) 1: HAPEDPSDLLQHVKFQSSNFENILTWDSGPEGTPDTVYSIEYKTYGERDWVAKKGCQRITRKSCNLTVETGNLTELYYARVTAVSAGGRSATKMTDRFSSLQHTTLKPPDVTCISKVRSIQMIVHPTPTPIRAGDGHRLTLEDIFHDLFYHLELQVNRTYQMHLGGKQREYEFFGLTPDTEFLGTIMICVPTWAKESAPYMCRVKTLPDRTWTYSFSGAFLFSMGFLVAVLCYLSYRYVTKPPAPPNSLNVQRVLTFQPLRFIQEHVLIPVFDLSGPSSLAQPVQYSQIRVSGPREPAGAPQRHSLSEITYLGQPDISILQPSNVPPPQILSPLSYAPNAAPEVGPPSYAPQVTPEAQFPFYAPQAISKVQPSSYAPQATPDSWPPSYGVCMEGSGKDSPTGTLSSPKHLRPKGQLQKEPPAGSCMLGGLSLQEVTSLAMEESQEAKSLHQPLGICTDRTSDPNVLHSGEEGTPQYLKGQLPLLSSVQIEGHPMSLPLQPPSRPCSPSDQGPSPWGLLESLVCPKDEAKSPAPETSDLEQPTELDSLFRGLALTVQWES
- T1 sequence (looked up) 2: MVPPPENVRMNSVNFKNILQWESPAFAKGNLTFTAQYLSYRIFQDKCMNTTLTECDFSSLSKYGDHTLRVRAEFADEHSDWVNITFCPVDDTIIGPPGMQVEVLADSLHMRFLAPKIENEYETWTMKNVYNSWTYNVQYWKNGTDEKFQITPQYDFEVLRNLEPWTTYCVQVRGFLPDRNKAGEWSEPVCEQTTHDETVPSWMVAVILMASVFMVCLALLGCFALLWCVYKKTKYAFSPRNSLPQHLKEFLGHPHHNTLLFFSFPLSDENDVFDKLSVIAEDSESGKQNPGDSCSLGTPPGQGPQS
- TEST_DESCRIPTION: cell-based or functional assay
Parameter: EC50, BHK cell reporter gene assay (STAT3-induced luciferase). Scope: all listed entries.
Report the figure in nM without appending any unit label.

{"columns": ["BINDER", "OBSERVED_MEASUREMENT"],
 "data": [
  ["Comparator 11 (ligand, C18 diacid attached through linker γGlu-OEG-OEG-C2DA-Ac to Cys 6C) GAPISSCCRLDKSNFQQPYITNRTFMLAKEASLADQNTDVRLIGEKLFHGVSMSERCYLMKQVLQFTLEEVLFPQSDRFQPYMQEVVPFLARLSNRLSTCHIEGDDLHIQRNVQKLKDTVKKLGESGEIKAIGELDLLFMSLRNACI", 1.24],
  ["Comparator 7 (ligand, C16 diacid attached through linker γGlu-OEG-OEG-C2DA-Ac to Cys -7C (in the N-terminal peptide)) GPGSGSGSCGSGSGSAPISSHCRLDKSNFQQPYITNRTFMLAKEASLADNNTDVRLIGEKLFHGVSMSERCYLMKQVLNFTLEEVLFPQSDRFQPYMQEVVPFLARLSNRLSTCHIEGDDLHIQRNVQKLKDTVKKLGESGEIKAIGELDLLFMSLRNACI", 0.18],
  ["Comparator 17 (ligand) GPGCPISSHCRLDKSNFQQPYITNRTFMLAKEASLADNNTDVRLIGEKLFHGVSMSERCYLMKQVLNFTLEEVLFPQSDRFQPYMQEVVPFLARLSNRLSTCHIEGDDLHIQRNVQKLKDTVKKLGESGEIKAIGELDLLFMSLRNACI", 0.09]
]}

IN: For the binder shown here, native mature human IL-22 (hIL-22) (ligand) APISSHCRLDKSNFQQPYITNRTFMLAKEASLADNNTDVRLIGEKLFHGVSMSERCYLMKQVLNFTLEEVLFPQSDRFQPYMQEVVPFLARLSNRLSTCHIEGDDLHIQRNVQKLKDTVKKLGESGEIKAIGELDLLFMSLRNACI , give the reported EC50, BHK cell reporter gene assay (STAT3-induced luciferase).
OUT: 0.07

IN: Please give the result for Comparator 13 (ligand, C16 diacid attached through linker γGlu-OEG-OEG-C2DA-Ac to Cys 1C) GPGCPISSHCRLDKSNFQQPYITNRTFMLAKEASLADQNTDVRLIGEKLFHGVSMSERCYLMKQVLQFTLEEVLFPQSDRFQPYMQEVVPFLARLSNRLSTCHIEGDDLHIQRNVQKLKDTVKKLGESGEIKAIGELDLLFMSLRNACI too.
OUT: 0.37

IN: Please give the result for Comparator 9 (ligand, C18 diacid attached through linker γGlu-OEG-OEG-C2DA-Ac to Cys 1C) GPGCPISSHCRLDKSNFQQPYITNRTFMLAKEASLADQNTDVRLIGEKLFHGVSMSERCYLMKQVLQFTLEEVLFPQSDRFQPYMQEVVPFLARLSNRLSTCHIEGDDLHIQRNVQKLKDTVKKLGESGEIKAIGELDLLFMSLRNACI too.
OUT: 0.61

IN: Please give the result for Comparator 6 (ligand, C16 diacid attached through linker γGlu-OEG-OEG-C2DA-Ac to Cys 1C) GPGCPISSHCRLDKSNFQQPYITNRTFMLAKEASLADNNTDVRLIGEKLFHGVSMSERCYLMKQVLNFTLEEVLFPQSDRFQPYMQEVVPFLARLSNRLSTCHIEGDDLHIQRNVQKLKDTVKKLGESGEIKAIGELDLLFMSLRNACI too.
OUT: 0.3

IN: Please give the result for Comparator 4 (ligand, C18 diacid attached through linker γGlu-OEG-OEG-C2DA-Ac to Cys 1C) GPGCPISSHCRLDKSNFQQPYITNRTFMLAKEASLADNNTDVRLIGEKLFHGVSMSERCYLMKQVLNFTLEEVLFPQSDRFQPYMQEVVPFLARLSNRLSTCHIEGDDLHIQRNVQKLKDTVKKLGESGEIKAIGELDLLFMSLRNACI too.
OUT: 0.48

IN: Please give the result for Comparator 18 (ligand) GPGCPISSHCRLDKSNFQQPYITNRTFMLAKEASLADQNTDVRLIGEKLFHGVSMSERCYLMKQVLQFTLEEVLFPQSDRFQPYMQEVVPFLARLSNRLSTCHIEGDDLHIQRNVQKLKDTVKKLGESGEIKAIGELDLLFMSLRNACI too.
OUT: 0.19

IN: Please give the result for Comparator 12 (ligand, C18 diacid attached through linker γGlu-OEG-OEG-C2DA-Ac to Cys 33C) APISSHCRLDKSNFQQPYITNRTFMLAKEASLCDQNTDVRLIGEKLFHGVSMSERCYLMKQVLQFTLEEVLFPQSDRFQPYMQEVVPFLARLSNRLSTCHIEGDDLHIQRNVQKLKDTVKKLGESGEIKAIGELDLLFMSLRNACI too.
OUT: 0.28

IN: Please give the result for Comparator 14 (ligand) GPISSHCRLDKSNFQQPYITNRTFMLAKEASLADNNTDVRLIGEKLFHGVSMSERCYLMKQVLNFTLEEVLFPQSDRFQPYMQEVVPFLARLSNRLSTCHIEGDDLHIQRNVQKLKDTVKKLGESGEIKAIGELDLLFMSLRNACI too.
OUT: 0.06
